Test system: SK-OV-3
Experiment: NCI tumour cell line growth inhibition, 48 h
Activity calls are given as the source filed them. No stated cut-off is given here; in the data, active = GI50 up to about 1.1 µM and inactive = higher.
Outcomes: y (active), n (inactive)

compound: COC(=O)c1c(OC(C)=O)ccc2c1c1cc3ccccc3c(OC(C)=O)c1n2C
assay-target: SK-OV-3
category: n
//
compound: O=C(/C=N/O)Nc1ccc(Cl)c(I)c1
assay-target: SK-OV-3
category: n
//
compound: Fc1ccc(/N=C2C=C/C(=N\c3ccc(F)cc3)c3ccccc3\2)cc1
assay-target: SK-OV-3
category: n
//
compound: CC(=O)OC1COC(n2nc(N)nc2C)C(OC(C)=O)C1OC(C)=O (configuration not stated)
assay-target: SK-OV-3
category: n
//
compound: N#CC1C(=O)N(c2ccccc2)NC12OC(=O)c1ccncc12 (configuration not stated)
assay-target: SK-OV-3
category: n
//
compound: O=C(Nc1sccc1S(=O)(=O)c1ccc(Cl)cc1)c1ccccc1
assay-target: SK-OV-3
category: n
//
compound: CC(SC(=S)N1CCCC1)C(=O)Nc1nnc(-c2ccc(Cl)cc2)o1 (configuration not stated)
assay-target: SK-OV-3
category: n
//
compound: c1ccc(C2CC(c3ccc4ccccc4c3)=Nc3ccccc3S2)cc1 (configuration not stated)
assay-target: SK-OV-3
category: n
//
compound: O=C1/C(=C/c2ccc([N+](=O)[O-])cc2)CNC/C1=C\c1ccc([N+](=O)[O-])cc1
assay-target: SK-OV-3
category: n
//
compound: COc1ccc(-c2nc(-c3cnccn3)n(C3OC(CO)C(O)C3O)n2)cc1 (configuration not stated)
assay-target: SK-OV-3
category: n
//
compound: C=CCc1cccc2cc(C(=O)NCc3ccccc3)c(=N)oc12
assay-target: SK-OV-3
category: n
//
compound: COc1cc(C2c3cc4c(cc3OC(C)(N3CCCC3)C2C)OCO4)cc(OC)c1OC (configuration not stated)
assay-target: SK-OV-3
category: y
//
compound: COc1ccc(CCNC2=CC(=O)c3ncccc3C2=O)cc1OC
assay-target: SK-OV-3
category: n
//
compound: COC(=O)C1C2C=CC(C2)N1[C@@H](C)c1ccccc1 (some centres not stated)
assay-target: SK-OV-3
category: n
//
compound: Cc1ccc(NC(=O)CCC(=O)C(C#N)c2ccccc2)cc1C (configuration not stated)
assay-target: SK-OV-3
category: n
//
compound: CSc1ccc2c(cc1=O)C(NC(=O)c1cc(O)c(OC(=O)O)c(O)c1)CCc1cc(O)c(O)c(O)c1-2 (configuration not stated)
assay-target: SK-OV-3
category: n
//
compound: COC(=O)Cc1ccc2c(c1)Sc1ccc(CC(=O)OC)cc1N2C
assay-target: SK-OV-3
category: n
//
compound: Cc1ccc(S(=O)(=O)N2CCSCCSCCSCCN(S(=O)(=O)c3ccc(C)cc3)CC2)cc1
assay-target: SK-OV-3
category: n
//
compound: N#CC(c1ccccc1)N(CCc1ccccc1)C(=O)c1ccccc1 (configuration not stated)
assay-target: SK-OV-3
category: n
//
compound: O=C(O)CCCNc1ncc2c(n1)-c1ccccc1OC2
assay-target: SK-OV-3
category: n
//
compound: Nc1c(C(=O)N/N=C/c2ccc(Cl)cc2)sc(=S)n1-c1ccccc1
assay-target: SK-OV-3
category: n
//
compound: COc1ccc(CSc2ccccc2Cn2cccc2)cc1OC
assay-target: SK-OV-3
category: n
